Item-by-item account of koff
Assayed target: full-length VAR2CSA recombinant protein (3D7-DBL1X-6ε) (Plasmodium falciparum 3D7, UniProt Q8I639, strain)
Test details: SPR
Outcome measure: koff (s⁻¹)

Binder	Outcome measure	Val
VHH879 (VHH) VHH: QVQLQESGGGLVQAGGSLRLSCAASGRTFSDYAMGWFRQAPGKDREFVAAISWSGDRTYYADSVKGRFTISRDNAKNTVYLQMNSLKPEDTAVYHCAANDLMVPELLMPRVESYDYWGQGTQVTVSS	koff	0.0015
VHH867 (VHH) VHH: QVQLQESGGGLVQAGGSLRLSCAASGFTLDDYGIGWFRQAPGKEREGVSFISSSDGTTDYADSVKGRFTISSDNAKNTVYLQMNSLKPEDTAVYYCAAVEQRVPFLSVLHEAIYDYWGQGTQVTVSS	koff	0.0027
VHH897 (VHH) VHH: QVQLQESGGGLVQAGGSLRISCAASGRTFSDYAMGWFRQAPGKEREFVAAISWNGDNTYYADSVKGRFTISRDNAKNTVYLQMNSLKPEDTAVYYCAANDLAVPGLLMPRVETYDYWGQGTQVTVSS	koff	0.0013
VHH883 (VHH) VHH: QVQLQESGGGLVQAGGSLRLSCAASGRTFSSYAMGWFRQAPGKEREFVAAISWSGDTTYYADSVKGRFTISRDNAKNTVSLQMNSLKPEDTAVYYCAANDLMVPALLMPRLESYDYWGQGTQVTVSS	koff	0.0017
VHH860 (VHH) VHH: QVQLQESGGGLVQAGGSLRLSCAASGRAFSDYAMGWFRQAPGKERDFVAAISWNGGNTYYSDSVKGRFTISRDNAENTVYLQMNSLKPEDTAVYYCAANDLAVPELLMPRVETYDYWGQGTQVTVSS	koff	0.0013
VHH889 (VHH) VHH: QVQLQESGGGLVQAGGSLRLSCAASGRSFSSYAMGWFRQAPGKEREFVATITWSGGSTYYADSVKGRFTISGDSAENTVYLQMNSLKPEDTAVYYCAADETSAPLYRAYEAQYDYWGQGTQVTVSS	koff	0.035
VHH884 (VHH) VHH: QVQLQESGGGLVQAGGSLRLSCAASGRTFSNYAMGWFRQAPGKEREFVAAISWNGGSTYYADSAKGRFTISRDNAENTVYLQMNSLKPEDTAVYRCAANDLMVPELLMPRVETYDYWGQGTQVTVSS	koff	0.0036
VHH893 (VHH) VHH: QVQLQESGGGLVQAGGSLRLSCAASGFTFDDYAIGWFRQAPGKEREGVSCISSGDGGTYYADSVKGRFTISSDNAENTVALQMNSLKPEDTAVYYCAAVYGSCWDGLLYRTDSYEYDGWGQGTQVTVSS	koff	0.0017
VHH861 (VHH) VHH: QVQLQESGGGLVQAGGSLRLSCAFSGSIFKMGWYRQAPGKERELVATITHIGVTDYAEFVKGRFTISRDNAKNTVYLLMNSLKPEDTAVYYCNVASRWPDYWGQGTQVTVSS	koff	0.001
VHH895 (VHH) VHH: QVQLQESGGGLVQAGGSLRVSCAASGRALSDYAMGWFRQTPGKEREFVAAISWNGGNTYYADSVKGRFTISRDNAENTVYLQMNSLKPEDTAVYYCAANDLAVPGLLMPRVETYDYWGQGTQVTVSS	koff	87.2
VHH891 (VHH) VHH: QVQLQESGGGLVQTGDSLRLSCAASGRTFSSYAMGWFRQAPGKEREFVAAITWGDGSADYADSVKGRFTISRDNAENTVYLQMNSLKPEDTAVYYCAAETVGAPIYTLGYSEAYDYWGQGTQVTVSS	koff	0.0014
VHH880 (VHH) VHH: QVQLQESGGGLVQAGGSLRLSCAASGRTFSDYAMGWFRQAPGKDREFVAAISWSGDRTYYADSVKGRFTISRDNAENTVYLQMNSLKPEDTAVYHCAANDLMVPELLMPRVESYDYWGQGTQVTVSS	koff	0.0018
VHH863 (VHH) VHH: QVQLQESGGGLVQTGGSLRLSCAASGRTFMDYVMGWFRQAPGKEREFVASISWTDSTRYTDSVKGRFTASRDDAEATVYLQMNNLQFEDTAVYYCARGAGRGHSVSAGDYVYWGQGTQVTVSS	koff	0.0014
VHH864 (VHH) VHH: QVQLQESGGGLVQTGGSLRLSCAASGRTFMDYVMGWFRQAPGKEREFVASISWTDSTRYTDSVKGRFTASRDDAKATVYLQMNNLQFEDTAVYYCARGAGRGHSVSAGDYVYWGQGTQVTVSS	koff	0.00063
VHH871 (VHH) VHH: QVQLQESGGGLVQAGGSLRLSCAASGSIFSIHAMGWYRQAPGKQRELVAAITSGGSTNYGDSVKGRFTISEDNAKNTVYLQMNGLKPEDTAVYYCAADNDGLGYVYWGQGTQVTVSS	koff	3.9e-05
VHH859 (VHH) VHH: QVQLQESGGGLVQAGGSLRLSCAASGRTFSSYAMGWFRQAPGKEREFVAAISWNGSSTYYADSVKGRFTISRDNAKNTVYLQMNSLKPEDTAVYYCAANDLLVPELLMSRVEVYDYWGQGTQVTVSS	koff	0.0032
